This collection of values is drawn from patent US20250066503A1.

- Experimental Target: T1, soluble human CD3 epsilon chain (human, UniProt P07766 23-126)
- T1 construct: also called CD3ε
- T1 sequence (P07766 23-126 limits assumed): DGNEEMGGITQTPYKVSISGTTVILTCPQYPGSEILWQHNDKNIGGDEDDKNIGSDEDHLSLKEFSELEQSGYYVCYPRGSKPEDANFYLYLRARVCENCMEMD
- Test: SPR
# key: entry, value: pKd
Please treat pKd as minus the base-10 logarithm of the molar concentration.

Study these solved cases before continuing.
CE115HA177-G1dh//-Hi-Kn010G3/L0000-k0 (antibody, V domains shown, one-arm) VH: QVQLVESGGGLVQPGRSLRLSCAASGFTFSNAWMHWVRQAPGKGLEWVAQIKAKSNNYATYYAESVKGRFTISRADSKNSIYLQMNSLKTEDTAVYYCRYVHYGAYYGVDAWGQGTTVTVSS VL: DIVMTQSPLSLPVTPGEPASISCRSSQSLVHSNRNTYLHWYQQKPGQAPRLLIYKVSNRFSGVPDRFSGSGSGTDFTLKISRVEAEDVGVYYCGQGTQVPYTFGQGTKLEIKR; 7.45
TR01H095-E22Hh/none-Hi-Kn010G3/L0011-k0 (antibody, V domains shown, one-arm) VH: QVQLVESGGGLVQPGRSLRLSCAASGFTFSNAWMHWVRQAPGKGLEWVAQIKDKSQNYAFYYAESVKGRFTISRDDSKNSLYLQMNSLKTEDTAVYYCRYVHYAAGYGVDAWGQGTTVTVSS VL: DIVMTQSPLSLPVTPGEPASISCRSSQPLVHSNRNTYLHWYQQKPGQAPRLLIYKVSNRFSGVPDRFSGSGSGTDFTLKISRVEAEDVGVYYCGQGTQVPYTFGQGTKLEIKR; 7.04

# pKd lookup, item TR01H100-E22Hh/none-Hi-Kn010G3/L0011-k0 (antibody, V domains shown, one-arm) VH: QVQLVESGGGLVQPGRSLRLSCAASGFTFSNAWMHWVRQAPGKGLEWVAQIKDKSQNYASYYAESVKGRFTISRDDSKNSLYLQMNSLKTEDTAVYYCRYVHYAAGYGVDAWGQGTTVTVSS VL: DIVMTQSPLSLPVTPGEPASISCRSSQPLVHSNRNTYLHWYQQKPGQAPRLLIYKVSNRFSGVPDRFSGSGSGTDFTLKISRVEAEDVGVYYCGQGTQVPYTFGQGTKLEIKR
7.20

Recorded pKd of TR01H049-E22Hh/none-Hi-Kn010G3/L0000-k0 (antibody, V domains shown, one-arm) VH: QVQLVESGGGLVQPGRSLRLSCAASGFTFSNAWMHWVRQAPGKGLEWVAQIKDKSQNYATYYAESVKGRFTISRDDSKNSIYLQMNSLKTEDTAVYYCRYVHYSASYGVDAWGQGTTVTVSS VL: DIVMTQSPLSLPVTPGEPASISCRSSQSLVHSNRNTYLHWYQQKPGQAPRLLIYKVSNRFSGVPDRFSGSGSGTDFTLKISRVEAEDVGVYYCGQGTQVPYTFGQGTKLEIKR , please.
7.17

Which pKd reading was recorded for the binder TR01H040-E22Hh/none-Hi-Kn010G3/TR01L008-k0 (antibody, V domains shown, one-arm) VH: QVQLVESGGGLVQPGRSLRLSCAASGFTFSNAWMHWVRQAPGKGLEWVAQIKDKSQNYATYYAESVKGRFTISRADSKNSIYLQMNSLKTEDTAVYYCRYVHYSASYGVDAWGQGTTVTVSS VL: DIVMTQSPLSLPVTPGEPASISCQASESLVHSNRNTYLHWYQQKPGQAPRLLIYKVSNRFRGVPDRFSGSGSGTDFTLKISRVEAEDVGVYYCGQGTQVPYTFGQGTKLEIK ?
7.53
